Every entry's value here was drawn from patent US20200223906A1.

# Kd per record follows
target: T1, RSV F subtype A, furin-cleaved ectodomain stabilized in the postfusion conformation (F ΔFP) (Respiratory syncytial virus subtype A, UniProt P03420 26-109; P03420 147-524); test: BLI, IgG on AHQ sensor, 100 nM antigen
T1 construct: extracellular domain; Trimeric soluble antigen; also called Postfusion subtype A
property-name: Kd (nM)

[[record]]
binder = "ADI-18947 (antibody, V domains shown, full-length IgG from yeast) VH: QVQLVQSGGGVVQSGRSLRLSCAASGFTFSDNGMHWVRQAPGKGLEWVAGIFHDGSNKQYAESVKGRFIISRDNSKNTLYLQMNSLRAEDTALYFCARAPYDIWSGYCLDYWGQGTLVTVSS VL: DIRMTQSPATLSLSPGESATLSCRASQSVINNLAWYQQRPGQAPRLLIYGASTRATGIPARFSGSGSETEFTLTISSLQSEDFAVYHCQQYSIWPQTFGQGTKLEIK"
numeric_result = 0.296

[[record]]
binder = "ADI-18899 (antibody, V domains shown, full-length IgG from yeast) VH: EVQLVESGGGVVQSGRSLRLSCAASGFTFSDNGMHWVRQAPGKGLEWVAGIFYDGSNKQYADSVKGRFTISRDNSKSTLYLQMNSLRAEDTAVYYCARAPYDIWSGYCLDYWGQGTLVTVSS VL: DIRLTQSPATLSMSPGERATLSCRASQSVNNNLAWYQQRPGQAPRLLIYGASTRATGIPARFSGSGSETEFTLTISSLQSEDFAVYHCQQYSIWPQTFGQGTKVDIK"
numeric_result = 0.266

[[record]]
binder = "ADI-18938 (antibody, V domains shown, full-length IgG from yeast; also called Antibody Number 291; Ab # 291) VH: EVQLLESGGGLVQPGGSLRLSCAASGFTFSNYWMHWVRQAPGKGLVWVSRISGDGSDTTYADSVEGRFTISRDNARSTLYLQLNSLTGDDTAVYYCARDLWTTSPYFDLWGQGTLVTVSS VL: EIVLTQSPGTLSASIGDRVTITCRASQSLNGWLAWYQQKPGKAPRLLIYKSSSLESGVPSRFSGSASGTEFTLTISSLQPDDFATYYCQQYNSWAFGQGTKVDVK"
numeric_result = 0.216

